Molecular target: Transitional endoplasmic reticulum ATPase (Homo sapiens, UniProt P55072)
Sequence (P55072 whole entry): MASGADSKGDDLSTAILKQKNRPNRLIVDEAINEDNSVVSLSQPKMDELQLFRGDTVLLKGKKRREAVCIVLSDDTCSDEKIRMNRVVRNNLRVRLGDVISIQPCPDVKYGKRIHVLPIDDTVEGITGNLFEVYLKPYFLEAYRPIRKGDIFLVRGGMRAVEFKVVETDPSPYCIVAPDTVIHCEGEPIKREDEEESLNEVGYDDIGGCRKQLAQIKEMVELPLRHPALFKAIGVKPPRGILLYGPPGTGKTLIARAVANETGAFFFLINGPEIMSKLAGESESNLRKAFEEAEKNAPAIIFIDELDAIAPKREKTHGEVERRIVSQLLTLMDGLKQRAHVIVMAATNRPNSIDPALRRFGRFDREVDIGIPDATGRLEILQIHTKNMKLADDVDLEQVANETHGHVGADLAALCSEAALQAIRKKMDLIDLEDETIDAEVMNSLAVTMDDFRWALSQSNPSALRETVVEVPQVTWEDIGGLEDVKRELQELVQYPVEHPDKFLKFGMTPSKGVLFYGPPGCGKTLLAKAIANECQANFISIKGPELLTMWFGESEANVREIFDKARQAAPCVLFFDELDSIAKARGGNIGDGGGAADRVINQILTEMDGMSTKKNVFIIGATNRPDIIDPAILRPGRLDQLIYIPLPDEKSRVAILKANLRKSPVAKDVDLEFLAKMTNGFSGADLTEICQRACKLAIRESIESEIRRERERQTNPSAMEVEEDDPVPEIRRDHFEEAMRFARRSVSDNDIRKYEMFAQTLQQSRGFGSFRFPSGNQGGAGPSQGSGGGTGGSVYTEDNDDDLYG
Experiment: biochemical
Description: Inhibition of human full length VCP (2 to 806 residues) expressed in High5 insect cells assessed as reduction in ATPase activity by measuring ADP formation by NADH coupled assay
pIC50: −log10 of the molar value.
REPORTED METRIC: pIC50

Examples with their reported pIC50 follow.
COc1cccc(CNc2cc(-c3ccccc3)nc(NC[C@H]3CC[C@H](C(N)=O)CC3)n2)c1 | 5.25
O=C(O)[C@H]1CC[C@H](CNc2nc(-c3ccccc3)cc(-c3ccc4[nH]ccc4c3)n2)CC1 | 6.82
Nc1ccc(-c2cc(-c3ccccc3)nc(NC[C@H]3CC[C@H](C(=O)O)CC3)n2)cc1[N+](=O)[O-] | 7.22

(A) Cc1ccc(-c2cc(-c3ccccc3)nc(NC[C@H]3CC[C@H](C(=O)O)CC3)n2)cc1
(B) CS(=O)(=O)c1ccc(-c2cc(-c3ccccc3)nc(NC[C@H]3CC[C@H](C(=O)O)CC3)n2)cc1
Returns: the argument ( A or B ) having the larger pIC50. Please identify the chosen entry by its label. A

(A) COc1ccccc1CNc1cc(-c2ccccc2)nc(NC[C@H]2CC[C@H](C(N)=O)CC2)n1
(B) NC(=O)[C@H]1CC[C@H](CNc2nc(NCc3ccccc3F)cc(-c3ccccc3)n2)CC1
Returns: the argument ( A or B ) having the larger pIC50. Please identify the chosen entry by its label. B
